Molecular target: Retinal dehydrogenase 2 (Homo sapiens)
Assay: qHTS for Inhibitors of the Aldehyde Dehydrogenase Family (ALDH1A2) Confirmation screens (AID 2061314); also: nearly all actives have a fitted effect of over 65% in size; also: potency is read from the fitted curve at half-maximal effect
Details: ALDH1A2 enzyme inhibition qHTS confirmation; series mostly up to 45.9 µM
Inconclusive results are not listed. Active and inactive are the calls of the source. Calls follow the shape of the dose curve; as a rule, active = well fitted inhibition curve with a large enough effect; inconclusive = small, poorly fitted or top-dose-only effect; inactive = no such curve, though single readings can be large or run the other way.
measurementLabel: Potency

>>> reportedmeasurement("O=C(CN(Cc1cccc2ccccc12)C1CC1)Nc1ccc(N2CCOCC2)cc1")
"11.3 µM (active)"
>>> reportedmeasurement("O=C([C@@H]1C[C@H](Oc2ccccc2)CN1S(=O)(=O)c1cccc(F)c1)N1CCOCC1")
"inactive"
>>> reportedmeasurement("COc1ccc(CNc2ccc(S(=O)(=O)Nc3nccs3)cc2)cc1O")
"6.34 µM (active)"
>>> reportedmeasurement("Cc1ccc(CCNC(=O)c2c(C)oc3nc(C)nc(N4CCOCC4)c23)cc1")
"inactive"
>>> reportedmeasurement("COc1ccc(Cl)cc1C(=O)NCc1nnc2cc(-c3nc(C)no3)ccn12")
"inactive"
>>> reportedmeasurement("CCc1nn(-c2ccccc2)c(Oc2cccc(C)c2)c1CCC(=O)N1CCOCC1")
"inactive"
>>> reportedmeasurement("N#Cc1c(-c2ccc(Br)cc2)no[n+]1[O-]")
"7.12 µM (active)"
>>> reportedmeasurement("c1ccc(-n2cc(-c3nnc4n3CCCCC4)cn2)cc1")
"12.7 µM (active)"
>>> reportedmeasurement("COc1cccc(-c2cccc(C(=O)N3CCN(C(=O)c4ccc(C)cc4)CC3)c2)c1")
"inactive"
>>> reportedmeasurement("CN1CCN(c2ccc(NC(=O)c3cccs3)cn2)CC1")
"12.7 µM (active)"
>>> reportedmeasurement("CC(C)Sc1ncc(Cl)c(C(=O)Nc2nc3ccc(S(C)(=O)=O)cc3s2)n1")
"inactive"
>>> reportedmeasurement("NC(=O)C1CCN(c2nc(-c3ccc(-c4ccccc4)cc3)cs2)CC1")
"inactive"
>>> reportedmeasurement("COc1ccc(C2=Nn3c(nnc3-c3cc(OC)ccc3OC)SC2)cc1")
"inactive"
>>> reportedmeasurement("NC(=O)c1c(NC(=O)c2ccco2)sc2c1CCCC2")
"10.1 µM (active)"
>>> reportedmeasurement("CCOC(=O)c1[nH]c2c(c1C)C(=S)CC(c1ccco1)C2 (centres undefined)")
"12.7 µM (active)"
>>> reportedmeasurement("Cc1ccc2nc3sc(C(=O)N4CCN(C5CCN(C)CC5)CC4)cc3cc2c1")
"inactive"
>>> reportedmeasurement("COc1ccc(C(=O)c2ccc(-c3no[n+]([O-])c3C#N)cc2)cc1")
"12.6 µM (active)"
>>> reportedmeasurement("O=C(Nc1cncc(Cc2ccccc2)c1)c1ccc(-c2cccc([N+](=O)[O-])c2)o1")
"12.7 µM (active)"
>>> reportedmeasurement("CC(=O)N1CCN(c2ccc(NS(=O)(=O)c3ccc4c(c3)CC(=O)N4)cc2)CC1")
"inactive"
>>> reportedmeasurement("Oc1cccc2cc(NCc3ccccc3F)cnc12")
"15.9 µM (active)"
>>> reportedmeasurement("COc1ccccc1Nc1cc2ccccc2c(=O)[nH]1")
"inactive"
>>> reportedmeasurement("CC(=O)c1ccc(NC(=O)CCc2c(C)nn(-c3ccc4nnc(C)n4n3)c2C)cc1")
"inactive"
>>> reportedmeasurement("O=C1Nc2cc(Cl)ccc2/C1=C\\c1cc(Cl)c(O)c(Cl)c1")
"25.2 µM (active)"
>>> reportedmeasurement("Cc1occc1-c1ccc2ncnc(NCCc3cnc[nH]3)c2c1")
"28.3 µM (active)"
>>> reportedmeasurement("CN(Cc1ccco1)Cc1ccc(O)c2ncccc12")
"2.52 µM (active)"
>>> reportedmeasurement("CN(C)c1ccc(-c2cc[nH]c(=O)c2N)cc1")
"0.225 µM (active)"
>>> reportedmeasurement("CCCc1cnc2c(c1SCC(=O)N(C)c1ccccc1)c(=O)n(C)c(=O)n2C")
"inactive"
>>> reportedmeasurement("CC(=O)Nc1sc2c(c1-c1ccco1)CCNC2")
"17.9 µM (active)"
>>> reportedmeasurement("COc1cc(C(=O)NCC(c2ccco2)S(=O)(=O)c2ccccc2)cc(OC)c1OC (centres undefined)")
"inactive"
>>> reportedmeasurement("CNc1ncc(-c2cccc3ccccc23)o1")
"10.1 µM (active)"
>>> reportedmeasurement("COc1ccc(C(=O)N(Cc2ccccc2)Cc2ccco2)c(O)c1")
"25.2 µM (active)"
>>> reportedmeasurement("O=C1Nc2ccc(Cl)cc2/C1=C\\c1cc(Cl)c(O)c(Cl)c1")
"12.7 µM (active)"
>>> reportedmeasurement("COc1ccc(-n2c(C)c(C(C)=O)c3cc(O)ccc32)cc1")
"inactive"
>>> reportedmeasurement("O=C(NCCN1CCN(c2ccccc2)CC1)Nc1cccc(Br)c1")
"inactive"
>>> reportedmeasurement("Nc1c(-c2ccccc2)cc[nH]c1=O")
"0.159 µM (active)"
>>> reportedmeasurement("O=C(Nc1cccc(-c2nn3c(=O)cc(N4CCNCC4)nc3s2)c1)c1ccncc1")
"14.1 µM (active)"
>>> reportedmeasurement("COc1ccc(CNc2ccc(N3CCN(C(C)=O)CC3)cc2)cc1OC")
"12.7 µM (active)"
>>> reportedmeasurement("Cn1sc(=O)n(Cc2ccccc2)c1=O")
"8.96 µM (active)"
>>> reportedmeasurement("CCOc1ccccc1NC(=O)c1cnc(N2CCOCC2)c2ccccc12")
"inactive"
